- Test system: RET
- Test conditions: concentration: 1 μM, replicates: in singlicate; n = 1;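 also: KINOMEscan kinase panel screen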
Rule: %Inh under 50% gives condition not met, otherwise condition met.

Past entries and their recorded results:
Molecule	Study target	Qualitative label
Cc1nn2c(=O)cc(N3CCO[C@H](C)C3)nc2n1Cc1cccc(Cl)c1Cl [GSK2373693]	RET	condition met
CSc1ccc(NC2=C(c3ccc(Cl)cc3)C(=O)NC2=O)cc1 [SB-317658]	RET	condition not met
COc1cccc(NC(=O)NCCNc2ccnc(Nc3ccc(F)cc3)n2)c1 [GSK1379879]	RET	condition not met
O=C(Nc1n[nH]c2cc(-c3cccs3)ccc12)C1CC1 [SB-731284]	RET	condition not met
COc1ccc(NC(=O)c2ccoc2)cc1-c1ccc(C(=O)NCC2CC2)cc1 [GW810437]	RET	condition not met

Check if %Inh >= 50% (inclusive). Item: COC(=O)Nc1nc2ccc(Oc3ccc(CC(=O)Nc4cc(C(F)(F)F)ccc4F)cc3)cc2[nH]1 [GW680903]
condition met

Check if %Inh >= 50% (inclusive). Item: Cc1ccc(O)cc1Nc1ccnc2cc(-c3ccc(CN4CCCCC4)o3)ccc12 [GW557777]
condition met

###

// values below are reported %Inh
- Test system: PLK4
- Test conditions: concentration: 1 μM, replicates: in singlicate; n = 1
A complete answer gives the number followed by the unit.

Please review the following examples before continuing.
Compound	Result
CCNc1nccc(-c2c(-c3ccc(F)cc3)ncn2C2CCN(C)CC2)n1	0%
Cc1ccc(-c2ccc3occ(-c4ccc(S(C)=O)cc4)c3c2)nn1 (centres unmarked)	2%
CC(=O)Nc1cn2nc(Oc3cccc(NC(=O)c4cccc(C(F)(F)F)c4)c3)ccc2n1	0%

get_value(item= O=C(O)C(F)(F)F.O=c1[nH]ccc2nc(N[C@@H]3CCNC3)nc(Nc3ccc4c(c3)S(=O)(=O)CC4)c12 [GSK2181306] , readout=%Inh) returns 97.4%

get_value(item= Cc1ccc(O)cc1Nc1ccnc2cc(-c3ccc(CN4CCCCC4)o3)ccc12 [GW557777] , readout=%Inh) returns 0%

get_value(item= O=C(Nc1c(F)cccc1F)c1cc(C(=O)c2ccccc2F)c[nH]1 [GSK1326180] , readout=%Inh) returns 0%

get_value(item= NCCC(NC(=O)c1cc(Br)c(-c2ccnc3[nH]ccc23)s1)c1ccccc1.O=C(O)C(F)(F)F.O=C(O)C(F)(F)F (centres unmarked) [GSK1307810] , readout=%Inh) returns 19%

get_value(item= CC(C)NCC(Cc1ccccc1)NC(=O)c1cc(Br)c(-c2ccnc3[nH]ccc23)s1.Cl.Cl (centres unmarked) [GSK1383281] , readout=%Inh) returns 90.1%

get_value(item= COC(=O)Nc1nc2ccc(Oc3ccc(NC(=O)Nc4cc(C(F)(F)F)ccc4F)cc3)cc2[nH]1.Cl [GW654607] , readout=%Inh) returns 0%

get_value(item= CCOc1nccc(-c2c(-c3ccc(F)cc3)ncn2C2CCNCC2)n1 [SB-249175] , readout=%Inh) returns 26%

get_value(item= Fc1cc(Cl)ccc1Nc1ccnc2cc(-c3ccc(CN4CCOCC4)o3)ccc12 [GW560109] , readout=%Inh) returns 81%

get_value(item= CN1CCN(Cc2ccc(NC(=O)Nc3ccc(N(C)c4ccnc(Nc5ccc(CS(C)(=O)=O)cc5)n4)cc3)cc2)CC1.Cl [GW827654] , readout=%Inh) returns 90%

get_value(item= O=C(Nc1n[nH]c2cc(-c3cccs3)ccc12)C1CC1 [SB-731284] , readout=%Inh) returns 29%

get_value(item= COc1cccc(NC(=O)NCCNc2ccnc(Nc3ccc(F)cc3)n2)c1 [GSK1379879] , readout=%Inh) returns 4%

get_value(item= COC(=O)Nc1nc2ccc(Oc3ccc(CC(=O)Nc4cc(C(F)(F)F)ccc4F)cc3)cc2[nH]1 [GW680903] , readout=%Inh) returns 0%

get_value(item= COc1cccc(CC(=O)N2CCc3cc(-c4cn(C)c5ncnc(N)c45)ccc32)c1 [GSK2608899] , readout=%Inh) returns 4%

get_value(item= N#CC1(c2cccc(C(=O)Nc3cccc(Oc4ccc5nc(NC(=O)C6CC6)sc5n4)c3)c2)CC1 , readout=%Inh) returns 0%

Cited source for all entries: paper PMC5540273
